Cited source: ChEMBL document CHEMBL1671674

# Tested on: Escherichia coli
# test-details: Antibacterial activity against Escherichia coli MG1655 harboring plasmid pBR322 carrying blaTEM-1 and tetA(C) genes grown as planktonic cells after 24 hrs by agar dilution method
# condition-details: K-12 substr. MG1655, 24 h
Kindly supply the reported MIC values for the records listed here.
Reply with just the number (in µg/mL).

Query: What does the data say about its MIC? Entry: CN(C)[C@@H]1C(O)=C(C(N)=O)C(=O)[C@@]2(O)C(O)=C3C(=O)c4c(O)cccc4[C@@](C)(O)[C@H]3C[C@@H]12 [TETRACYCLINE]
Reply: 500

Query: What does the data say about its MIC? Entry: O=C(N[C@H](CO)[C@H](O)c1ccc([N+](=O)[O-])cc1)C(Cl)Cl [CHLORAMPHENICOL]
Reply: 0.5

Query: What does the data say about its MIC? Entry: CC[C@H]1OC(=O)[C@H](C)[C@@H](O[C@H]2C[C@@](C)(OC)[C@@H](O)[C@H](C)O2)[C@H](C)[C@@H](O[C@@H]2O[C@H](C)C[C@H](N(C)C)[C@H]2O)[C@](C)(O)C[C@@H](C)C(=O)[C@H](C)[C@@H](O)[C@]1(C)O [ERYTHROMYCIN]
Reply: 0.5

Query: What does the data say about its MIC? Entry: CC1(C)S[C@@H]2[C@H](NC(=O)Cc3ccccc3)C(=O)N2[C@H]1C(=O)O [PENICILLIN G]
Reply: 5

Query: What does the data say about its MIC? Entry: CC1(C)S[C@@H]2[C@H](NC(=O)[C@H](N)c3ccccc3)C(=O)N2[C@H]1C(=O)O [AMPICILLIN]
Reply: 500
